tested on: 697; test: Antiproliferative activity against human 697 cells assessed as inhibition of cell growth incubated for 72 hrs by cell-titer glo assay; type: functional, cell-based; conditions: Homo sapiens, 697, 72 h
Quantity measured: pIC50
Scale: negative log10 of molar concentration, which is what pIC50 denotes.

# input Give the measured pIC50 of CN1CCN(c2ccc(OC(F)(F)F)c(Nc3ncc4c(n3)-c3c(c(C(N)=O)nn3CCO)CC4)c2)CC1 [ONVANSERTIB] .
# output 7.59

###

system: NCI-H1993; experiment: Antiproliferative activity against human NCI-H1993 cells assessed as inhibition of cell growth incubated for 72 hrs by cell-titer glo assay; type: functional, cell-based; details: NCI-H1993, 72 h
Quantity measured: IC50 (nM)
Quick note: give the figure in nM, leave out the unit.

# input Which IC50 is listed for CN1CCN(c2ccc(OC(F)(F)F)c(Nc3ncc4c(n3)-c3c(c(C(N)=O)nn3CCO)CC4)c2)CC1 ?
# output 287

###

system: CAPAN-1; test: Antiproliferative activity against human CAPAN-1 cells assessed as inhibition of cell growth incubated for 72 hrs by cell-titer glo assay; format: functional, cell-based; conditions: CAPAN-1, 72 h
Quantity measured: IC50 (µM)
Give the value, in units of µM, as a plain number.

# input // returns reported IC50 for input CN1CCN(c2ccc(OC(F)(F)F)c(Nc3ncc4c(n3)-c3c(c(C(N)=O)nn3CCO)CC4)c2)CC1
# output 0.237

###

target: Tyrosine-protein kinase JAK3 (Homo sapiens)
Sequence (P52333 whole entry): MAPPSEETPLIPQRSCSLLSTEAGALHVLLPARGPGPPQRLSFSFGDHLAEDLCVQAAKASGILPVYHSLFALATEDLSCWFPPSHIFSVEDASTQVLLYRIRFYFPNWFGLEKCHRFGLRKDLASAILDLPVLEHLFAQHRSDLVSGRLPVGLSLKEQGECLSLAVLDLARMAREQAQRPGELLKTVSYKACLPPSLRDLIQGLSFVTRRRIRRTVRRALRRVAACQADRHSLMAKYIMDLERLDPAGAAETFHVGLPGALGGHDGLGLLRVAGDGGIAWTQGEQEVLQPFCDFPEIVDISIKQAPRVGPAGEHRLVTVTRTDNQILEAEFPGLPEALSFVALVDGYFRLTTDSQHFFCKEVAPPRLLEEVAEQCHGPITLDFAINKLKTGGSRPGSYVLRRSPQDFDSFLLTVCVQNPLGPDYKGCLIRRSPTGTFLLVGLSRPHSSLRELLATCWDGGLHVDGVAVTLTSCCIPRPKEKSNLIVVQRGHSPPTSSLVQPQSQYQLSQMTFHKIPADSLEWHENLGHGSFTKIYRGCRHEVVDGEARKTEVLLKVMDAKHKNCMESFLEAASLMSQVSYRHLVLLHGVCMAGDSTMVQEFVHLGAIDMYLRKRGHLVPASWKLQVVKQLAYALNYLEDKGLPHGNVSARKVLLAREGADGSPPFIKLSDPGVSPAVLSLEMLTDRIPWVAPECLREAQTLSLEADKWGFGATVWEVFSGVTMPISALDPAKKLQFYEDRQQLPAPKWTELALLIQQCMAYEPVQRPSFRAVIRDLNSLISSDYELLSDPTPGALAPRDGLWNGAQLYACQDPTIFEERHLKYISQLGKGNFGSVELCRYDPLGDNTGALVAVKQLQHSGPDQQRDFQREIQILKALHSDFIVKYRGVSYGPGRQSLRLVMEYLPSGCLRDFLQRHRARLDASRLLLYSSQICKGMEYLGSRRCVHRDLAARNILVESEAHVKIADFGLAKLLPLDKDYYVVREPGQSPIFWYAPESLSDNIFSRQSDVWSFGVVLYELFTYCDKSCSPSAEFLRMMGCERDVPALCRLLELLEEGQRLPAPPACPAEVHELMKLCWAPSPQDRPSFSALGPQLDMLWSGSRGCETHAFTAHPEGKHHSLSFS
pIC50: −log10 of the molar value.
Quantity measured: pIC50

# input Checklist item: pIC50 tested on Tyrosine-protein kinase JAK3 (Homo sapiens), entry CN1CCN(c2ccc(OC(F)(F)F)c(Nc3ncc4c(n3)-c3c(c(C(N)=O)nn3CCO)CC4)c2)CC1 [ONVANSERTIB] , value?
# output < 5.00

###

biological target: Non-receptor tyrosine-protein kinase TYK2 (Homo sapiens, UniProt P29597)
Sequence (P29597 whole entry): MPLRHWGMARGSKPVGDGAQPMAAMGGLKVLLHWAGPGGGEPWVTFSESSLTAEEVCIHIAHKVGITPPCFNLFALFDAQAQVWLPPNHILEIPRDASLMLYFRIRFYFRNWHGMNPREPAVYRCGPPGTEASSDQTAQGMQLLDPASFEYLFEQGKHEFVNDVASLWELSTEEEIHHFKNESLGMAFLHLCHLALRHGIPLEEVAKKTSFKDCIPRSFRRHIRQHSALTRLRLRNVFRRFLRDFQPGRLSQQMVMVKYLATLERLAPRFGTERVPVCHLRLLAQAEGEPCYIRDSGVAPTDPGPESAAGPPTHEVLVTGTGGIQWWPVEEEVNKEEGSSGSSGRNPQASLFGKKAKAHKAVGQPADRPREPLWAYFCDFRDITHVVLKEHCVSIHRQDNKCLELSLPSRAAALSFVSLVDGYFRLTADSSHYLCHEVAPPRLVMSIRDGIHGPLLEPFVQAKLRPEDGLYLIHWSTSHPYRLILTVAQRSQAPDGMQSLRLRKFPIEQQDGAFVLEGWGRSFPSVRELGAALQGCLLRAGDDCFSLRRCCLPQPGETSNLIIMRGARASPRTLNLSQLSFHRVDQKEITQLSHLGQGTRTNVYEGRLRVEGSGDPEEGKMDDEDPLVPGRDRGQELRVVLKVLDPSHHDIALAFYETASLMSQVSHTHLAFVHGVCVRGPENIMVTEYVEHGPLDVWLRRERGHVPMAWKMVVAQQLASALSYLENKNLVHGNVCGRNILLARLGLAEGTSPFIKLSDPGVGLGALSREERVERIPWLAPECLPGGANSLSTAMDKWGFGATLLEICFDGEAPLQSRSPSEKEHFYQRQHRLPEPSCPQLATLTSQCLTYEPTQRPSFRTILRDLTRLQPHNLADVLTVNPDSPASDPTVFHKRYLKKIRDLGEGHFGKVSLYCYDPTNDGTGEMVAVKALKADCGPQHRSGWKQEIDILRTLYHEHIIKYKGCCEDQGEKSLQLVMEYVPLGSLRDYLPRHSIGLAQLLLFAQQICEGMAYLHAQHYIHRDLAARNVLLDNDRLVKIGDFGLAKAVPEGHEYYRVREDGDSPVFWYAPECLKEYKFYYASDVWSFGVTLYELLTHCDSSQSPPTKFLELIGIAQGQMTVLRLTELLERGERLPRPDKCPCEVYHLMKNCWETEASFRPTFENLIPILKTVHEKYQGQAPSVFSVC
Quantity measured: IC50

# input Query (compound): CN1CCN(c2ccc(OC(F)(F)F)c(Nc3ncc4c(n3)-c3c(c(C(N)=O)nn3CCO)CC4)c2)CC1 ; field requested: IC50
# output > 10 µM

###

tested on: 1A9/ptx-22; test: Antiproliferative activity against human 1A9/ptx-22 cells assessed as inhibition of cell growth incubated for 72 hrs by cell-titer glo assay; format: functional, cell-based; settings: 1A9/ptx-22, 72 h
Quantity measured: IC50 (nM)
Value expressed in nM; do not type the unit.

# input Reported IC50 for CN1CCN(c2ccc(OC(F)(F)F)c(Nc3ncc4c(n3)-c3c(c(C(N)=O)nn3CCO)CC4)c2)CC1 : what is it?
# output 65

###

experiment: Inhibition of CDK2/CycA (unknown origin) in presence of [gamma-33P]ATP; parameters: species or system Homo sapiens
Quantity measured: IC50

# input I have this compound here, CN1CCN(c2ccc(OC(F)(F)F)c(Nc3ncc4c(n3)-c3c(c(C(N)=O)nn3CCO)CC4)c2)CC1 , and I need its recorded IC50.
# output > 10 µM

###

biological target: Cyclin-dependent kinase 1/cyclin B1 (Homo sapiens, UniProt P06493); test: Inhibition of CDK1/CycB (unknown origin) in presence of [gamma-33P]ATP
Sequence (P06493 whole entry): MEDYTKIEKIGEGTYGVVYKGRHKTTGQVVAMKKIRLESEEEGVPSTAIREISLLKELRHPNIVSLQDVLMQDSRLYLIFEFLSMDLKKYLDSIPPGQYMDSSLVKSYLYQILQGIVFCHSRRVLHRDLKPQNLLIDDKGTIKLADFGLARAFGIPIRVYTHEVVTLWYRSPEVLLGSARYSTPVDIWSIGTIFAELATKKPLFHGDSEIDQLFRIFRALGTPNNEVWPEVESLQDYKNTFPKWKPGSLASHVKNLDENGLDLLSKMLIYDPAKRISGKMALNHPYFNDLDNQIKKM
Sequence (P14635 whole entry, further chain): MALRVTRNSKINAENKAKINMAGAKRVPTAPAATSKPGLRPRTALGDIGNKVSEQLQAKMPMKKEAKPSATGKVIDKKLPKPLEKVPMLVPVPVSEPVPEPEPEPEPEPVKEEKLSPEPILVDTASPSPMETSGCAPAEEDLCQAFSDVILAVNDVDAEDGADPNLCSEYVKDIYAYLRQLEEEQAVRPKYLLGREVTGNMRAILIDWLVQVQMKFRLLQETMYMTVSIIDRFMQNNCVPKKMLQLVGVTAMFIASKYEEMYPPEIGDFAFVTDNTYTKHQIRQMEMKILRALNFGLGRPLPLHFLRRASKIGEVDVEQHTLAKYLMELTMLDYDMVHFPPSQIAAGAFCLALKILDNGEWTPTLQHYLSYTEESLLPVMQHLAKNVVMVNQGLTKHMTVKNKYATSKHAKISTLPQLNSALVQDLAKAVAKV
Quantity measured: IC50

# input Data request, read-out IC50, for CN1CCN(c2ccc(OC(F)(F)F)c(Nc3ncc4c(n3)-c3c(c(C(N)=O)nn3CCO)CC4)c2)CC1
# output > 10 µM

###

target: High affinity nerve growth factor receptor (Homo sapiens, UniProt P04629)
Sequence (P04629 whole entry): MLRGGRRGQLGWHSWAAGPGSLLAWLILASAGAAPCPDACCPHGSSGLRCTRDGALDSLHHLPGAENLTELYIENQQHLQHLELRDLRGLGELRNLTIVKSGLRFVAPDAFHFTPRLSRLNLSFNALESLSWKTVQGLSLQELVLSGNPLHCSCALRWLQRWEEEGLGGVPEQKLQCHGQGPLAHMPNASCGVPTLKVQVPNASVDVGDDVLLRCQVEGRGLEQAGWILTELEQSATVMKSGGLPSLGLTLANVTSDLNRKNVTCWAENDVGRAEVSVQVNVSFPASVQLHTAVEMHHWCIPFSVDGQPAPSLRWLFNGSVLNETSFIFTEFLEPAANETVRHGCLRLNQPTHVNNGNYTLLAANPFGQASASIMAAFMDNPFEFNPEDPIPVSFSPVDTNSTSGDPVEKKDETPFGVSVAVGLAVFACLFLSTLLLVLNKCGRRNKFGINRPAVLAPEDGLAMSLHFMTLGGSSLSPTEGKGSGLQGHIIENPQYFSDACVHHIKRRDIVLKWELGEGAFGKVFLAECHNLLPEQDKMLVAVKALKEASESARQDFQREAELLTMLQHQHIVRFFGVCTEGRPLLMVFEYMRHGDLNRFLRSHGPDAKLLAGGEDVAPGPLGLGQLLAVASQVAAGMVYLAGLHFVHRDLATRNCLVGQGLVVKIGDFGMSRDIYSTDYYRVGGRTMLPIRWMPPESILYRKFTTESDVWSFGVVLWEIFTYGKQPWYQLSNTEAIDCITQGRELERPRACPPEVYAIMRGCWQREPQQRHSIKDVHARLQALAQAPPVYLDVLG
pIC50: −log10 of the molar value.
Quantity measured: pIC50

# input Any idea what its pIC50 is? The compound is CN1CCN(c2ccc(OC(F)(F)F)c(Nc3ncc4c(n3)-c3c(c(C(N)=O)nn3CCO)CC4)c2)CC1
# output < 5.00

###

tested on: NCI-H322M; assay: Antiproliferative activity against human NCI-H322M cells assessed as inhibition of cell growth incubated for 72 hrs by cell-titer glo assay; assay type: functional, cell-based
Quantity measured: pIC50
Just the number, please; pIC50 means minus log10 of the concentration in mol/L.

# input What value of measured pIC50 is listed for CN1CCN(c2ccc(OC(F)(F)F)c(Nc3ncc4c(n3)-c3c(c(C(N)=O)nn3CCO)CC4)c2)CC1 ?
# output 6.74

###

test: Antiproliferative activity against human M-07e cells assessed as inhibition of cell growth incubated for 72 hrs by cell-titer glo assay; format: functional, cell-based
Quantity measured: IC50
The reply should consist of the numeric value with the unit placed after it.

# input Name the recorded IC50 for CN1CCN(c2ccc(OC(F)(F)F)c(Nc3ncc4c(n3)-c3c(c(C(N)=O)nn3CCO)CC4)c2)CC1 .
# output 0.066 µM

###

system: LP-1; test: Antiproliferative activity against human LP-1 cells assessed as inhibition of cell growth incubated for 72 hrs by cell-titer glo assay; assay type: functional, cell-based; conditions: LP-1, 72 h
Quantity measured: IC50 (nM)
Report only the number, with the unit nM understood.

# input Field request: IC50 | item: CN1CCN(c2ccc(OC(F)(F)F)c(Nc3ncc4c(n3)-c3c(c(C(N)=O)nn3CCO)CC4)c2)CC1 [ONVANSERTIB]
# output 59

###

tested on: MDA-MB-435S; test: Antiproliferative activity against human MDA-MB-435S cells assessed as inhibition of cell growth incubated for 72 hrs by cell-titer glo assay; type: functional, cell-based
Quantity measured: pIC50
Just the number, please; pIC50 means minus log10 of the concentration in mol/L.

# input Please report the recorded pIC50 for CN1CCN(c2ccc(OC(F)(F)F)c(Nc3ncc4c(n3)-c3c(c(C(N)=O)nn3CCO)CC4)c2)CC1 .
# output 7.64

###

system: A-431; assay: Antiproliferative activity against human A-431 cells assessed as inhibition of cell growth incubated for 72 hrs by cell-titer glo assay; assay type: functional, cell-based; conditions: A-431, 72 h
Quantity measured: IC50
Please state the value followed by its unit.

# input So what's the measured IC50 for this one? CN1CCN(c2ccc(OC(F)(F)F)c(Nc3ncc4c(n3)-c3c(c(C(N)=O)nn3CCO)CC4)c2)CC1 [ONVANSERTIB]
# output 59 nM

###

Biological target: Eukaryotic elongation factor 2 kinase (Homo sapiens, UniProt O00418)
Sequence (O00418 whole entry): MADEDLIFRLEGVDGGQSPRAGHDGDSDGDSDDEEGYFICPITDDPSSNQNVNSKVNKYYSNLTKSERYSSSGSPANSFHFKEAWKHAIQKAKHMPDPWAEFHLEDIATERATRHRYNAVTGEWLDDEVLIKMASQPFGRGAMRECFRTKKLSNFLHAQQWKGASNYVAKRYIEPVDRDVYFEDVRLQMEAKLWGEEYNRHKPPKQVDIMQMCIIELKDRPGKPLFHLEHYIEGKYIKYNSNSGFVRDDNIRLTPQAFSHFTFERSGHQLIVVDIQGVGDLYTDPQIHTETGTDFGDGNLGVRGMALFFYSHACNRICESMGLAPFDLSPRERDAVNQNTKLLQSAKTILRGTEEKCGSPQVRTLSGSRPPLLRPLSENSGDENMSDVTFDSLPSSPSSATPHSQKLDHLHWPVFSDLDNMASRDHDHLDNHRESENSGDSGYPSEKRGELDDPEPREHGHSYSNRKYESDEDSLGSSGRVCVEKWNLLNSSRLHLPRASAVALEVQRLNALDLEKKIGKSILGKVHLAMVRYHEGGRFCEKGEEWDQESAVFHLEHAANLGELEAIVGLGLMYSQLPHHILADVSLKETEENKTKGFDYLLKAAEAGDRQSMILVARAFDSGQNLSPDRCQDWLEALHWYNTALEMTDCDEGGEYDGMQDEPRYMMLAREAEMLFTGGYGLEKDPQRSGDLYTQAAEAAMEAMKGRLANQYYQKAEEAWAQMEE
pIC50: −log10 of the molar value.
Quantity measured: pIC50

# input Lab note: need pIC50 for CN1CCN(c2ccc(OC(F)(F)F)c(Nc3ncc4c(n3)-c3c(c(C(N)=O)nn3CCO)CC4)c2)CC1 on Eukaryotic elongation factor 2 kinase (Homo sapiens, UniProt O00418), anyone have it?
# output < 5.00

###

test system: NCI-H1770; test: Antiproliferative activity against human NCI-H1770 cells assessed as inhibition of cell growth incubated for 72 hrs by cell-titer glo assay; assay type: functional, cell-based; conditions: NCI-H1770, 72 h
Quantity measured: pIC50
In plain terms, pIC50 is the concentration in mol/L turned into minus its base-10 logarithm.

# input Requested read-out: pIC50. Entry: CN1CCN(c2ccc(OC(F)(F)F)c(Nc3ncc4c(n3)-c3c(c(C(N)=O)nn3CCO)CC4)c2)CC1
# output 7.17

###

system: A498; test: Antiproliferative activity against human A498 cells assessed as inhibition of cell growth incubated for 72 hrs by cell-titer glo assay; type: functional, cell-based; settings: A498, 72 h
Quantity measured: pIC50
When answering, recall that pIC50 equals minus log10 of the concentration in mol/L, and write that number alone.

# input State the recorded pIC50 for this entry: CN1CCN(c2ccc(OC(F)(F)F)c(Nc3ncc4c(n3)-c3c(c(C(N)=O)nn3CCO)CC4)c2)CC1
# output 5.97
